biological target: DYRK1B (human) (UniProt Q9Y463); assay: Caliper, Mobility shift assay off-chip; conditions: compound 0.02 µM
Sequence (Q9Y463 whole entry, looked up): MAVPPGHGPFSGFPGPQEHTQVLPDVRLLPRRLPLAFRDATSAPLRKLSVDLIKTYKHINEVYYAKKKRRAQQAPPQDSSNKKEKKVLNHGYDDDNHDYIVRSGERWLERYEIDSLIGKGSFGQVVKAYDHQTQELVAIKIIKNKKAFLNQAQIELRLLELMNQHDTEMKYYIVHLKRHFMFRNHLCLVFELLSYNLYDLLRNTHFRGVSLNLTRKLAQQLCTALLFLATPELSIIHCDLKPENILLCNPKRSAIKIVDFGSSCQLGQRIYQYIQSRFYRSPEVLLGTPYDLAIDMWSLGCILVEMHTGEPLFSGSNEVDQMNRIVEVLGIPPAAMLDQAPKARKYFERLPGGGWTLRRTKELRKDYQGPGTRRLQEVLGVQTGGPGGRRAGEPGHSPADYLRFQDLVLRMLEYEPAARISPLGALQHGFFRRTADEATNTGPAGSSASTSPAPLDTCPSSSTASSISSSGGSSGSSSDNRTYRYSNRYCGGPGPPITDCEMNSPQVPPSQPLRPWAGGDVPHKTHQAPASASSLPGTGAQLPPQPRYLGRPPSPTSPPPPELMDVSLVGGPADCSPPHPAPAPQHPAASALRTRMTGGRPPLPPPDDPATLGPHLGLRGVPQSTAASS
endpoint.name: inhibition (%)
Give bare numbers, in %.

Request: Entry under review: `Cc1ccc(Nc2nccc(N(C)c3ccc4c(C)n(C)nc4c3)n2)cc1S(N)(=O)=O` . Reported inhibition?
Response: -4.3

Please look at the items below and tell me inhibition for each one, in order.
1. COc1cc2c(Oc3ccc4[nH]c(C)cc4c3F)ncnc2cc1OCCCN1CCCC1
2. CNC(=O)c1ccccc1Sc1ccc2c(/C=C/c3ccccn3)n[nH]c2c1
3. CNC(=O)c1cc(Oc2ccc(NC(=O)Nc3ccc(Cl)c(C(F)(F)F)c3)cc2)ccn1

Response:
1. 6.7
2. -0.4
3. -6.7

---

Answer each item with its documented inhibition.
biological target: DDR1 (human) (UniProt Q08345); experiment: Caliper, Mobility shift assay off-chip; conditions: compound 0.2 µM
Sequence (Q08345 whole entry, looked up): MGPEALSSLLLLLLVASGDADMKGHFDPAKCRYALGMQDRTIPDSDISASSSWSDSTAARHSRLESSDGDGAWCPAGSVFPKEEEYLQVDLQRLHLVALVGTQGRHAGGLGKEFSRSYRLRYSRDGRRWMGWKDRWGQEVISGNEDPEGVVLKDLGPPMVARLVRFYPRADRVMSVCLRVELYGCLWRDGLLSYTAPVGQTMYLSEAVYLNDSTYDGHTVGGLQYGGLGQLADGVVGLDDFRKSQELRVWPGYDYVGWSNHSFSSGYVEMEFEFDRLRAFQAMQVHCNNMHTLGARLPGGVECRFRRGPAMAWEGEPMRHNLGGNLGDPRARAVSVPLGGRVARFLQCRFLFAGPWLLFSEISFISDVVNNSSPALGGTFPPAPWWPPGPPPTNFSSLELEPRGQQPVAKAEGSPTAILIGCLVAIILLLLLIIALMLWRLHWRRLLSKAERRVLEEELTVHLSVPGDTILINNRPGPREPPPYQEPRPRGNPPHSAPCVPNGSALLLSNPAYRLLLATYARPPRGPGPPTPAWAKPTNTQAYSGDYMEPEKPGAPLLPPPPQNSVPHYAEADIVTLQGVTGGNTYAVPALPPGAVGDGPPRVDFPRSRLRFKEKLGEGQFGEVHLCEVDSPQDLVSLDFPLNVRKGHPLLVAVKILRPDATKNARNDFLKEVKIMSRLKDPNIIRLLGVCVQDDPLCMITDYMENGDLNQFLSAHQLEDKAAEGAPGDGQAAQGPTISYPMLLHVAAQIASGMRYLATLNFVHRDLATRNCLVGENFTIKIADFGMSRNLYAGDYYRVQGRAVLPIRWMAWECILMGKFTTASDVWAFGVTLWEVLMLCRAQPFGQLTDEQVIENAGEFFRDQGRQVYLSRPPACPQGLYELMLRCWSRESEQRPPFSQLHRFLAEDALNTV
Answers are plain numbers, in %.

Example entries and their recorded answers appear below.
Request: inhibition for `COc1cc2c(Oc3ccc4[nH]c(C)cc4c3F)ncnc2cc1OCCCN1CCCC1` ?
Response: 95.3

Request: Ok, now `CCN(CC)CCNC(=O)c1c(C)[nH]c(/C=C2\C(=O)Nc3ccc(F)cc32)c1C`
Response: 71.8

Request: What do you get for `Cc1ccc(Nc2nccc(N(C)c3ccc4c(C)n(C)nc4c3)n2)cc1S(N)(=O)=O` ?
Response: 80.9

New cases:
Request: Recorded inhibition of `CNC(=O)c1cc(Oc2ccc(NC(=O)Nc3ccc(Cl)c(C(F)(F)F)c3)cc2)ccn1` , please.
Response: 88.7

---

target: AXL (human); experiment: Caliper, Mobility shift assay off-chip; conditions: compound 0.02 µM
endpoint.name: inhibition (%)
One number for each entry, in %.

Request: Reported inhibition, compound `CNC(=O)c1cc(Oc2ccc(NC(=O)Nc3ccc(Cl)c(C(F)(F)F)c3)cc2)ccn1` : ____
Response: -7.4

Request: Same for `COc1cc2c(Oc3ccc4[nH]c(C)cc4c3F)ncnc2cc1OCCCN1CCCC1`
Response: 6.9

Request: Moving on to the next compound: `CNC(=O)c1ccccc1Sc1ccc2c(/C=C/c3ccccn3)n[nH]c2c1`
Response: 4.1

Continue with the next compound.
Request: # get_value(readout='inhibition', item= `Cc1ccc(Nc2nccc(N(C)c3ccc4c(C)n(C)nc4c3)n2)cc1S(N)(=O)=O` )
Response: 1.7

---

biological target: CDK1 (human) (UniProt P06493); test: Caliper, Mobility shift assay off-chip; conditions: compound 0.2 µM
Sequence (P06493 whole entry, looked up): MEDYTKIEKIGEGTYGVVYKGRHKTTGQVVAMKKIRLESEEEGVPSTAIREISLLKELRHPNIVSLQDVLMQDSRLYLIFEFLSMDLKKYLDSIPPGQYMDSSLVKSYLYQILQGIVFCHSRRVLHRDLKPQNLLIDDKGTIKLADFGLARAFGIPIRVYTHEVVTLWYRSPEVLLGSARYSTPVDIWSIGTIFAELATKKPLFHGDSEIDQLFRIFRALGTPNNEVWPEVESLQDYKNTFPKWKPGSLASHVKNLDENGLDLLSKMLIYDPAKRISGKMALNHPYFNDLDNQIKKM
Assignment: determine reported inhibition for the given molecules.

Here is how some molecules turned out for inhibition.
Request: Given `COc1cc2c(Oc3ccc4[nH]c(C)cc4c3F)ncnc2cc1OCCCN1CCCC1` , state its recorded inhibition.
Response: -3.2%

Request: Now consider `CNC(=O)c1cc(Oc2ccc(NC(=O)Nc3ccc(Cl)c(C(F)(F)F)c3)cc2)ccn1` .
Response: -2%

Request: Can you check `CCN(CC)CCNC(=O)c1c(C)[nH]c(/C=C2\C(=O)Nc3ccc(F)cc32)c1C` next?
Response: -3%

Proceed to the following item.
Request: Dear colleague, I am looking for the recorded inhibition of the following molecule: `Cc1ccc(Nc2nccc(N(C)c3ccc4c(C)n(C)nc4c3)n2)cc1S(N)(=O)=O`
Response: -1.5%
